Test: Time course of conversion to indirubin in FaSSIF at 37° C.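 Also: test compound, about 1-3 mg in 5 mL FaSSIF, sampled and analysed by UPLC-MS with PDA UV (210-400 nm), QDa mass and evaporative light scattering detection.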
Format: physicochemical
Details: FaSSIF 37° C., 15 min
starting material (prodrug compound) below 6% gives False; starting material (prodrug compound) at or above it gives True.

q: Test whether the compound CN(C)C1CCN(CN2C(=O)/C(=C3\Nc4ccccc4C3=O)c3ccccc32)CC1 [drawing 256] records starting material (prodrug compound) of 6% or higher.
a: True

q: Next compound: O=C1/C(=C2/C(=O)N(CN3CCC(F)(F)CC3)c3ccccc32)Nc2ccccc21 [drawing 260]
a: True

q: Can you handle O=C1/C(=C2/C(=O)N(CN3CCC3)c3ccccc32)Nc2ccccc21 [drawing 266] next?
a: True

q: Thanks! And O=C1/C(=C2/C(=O)N(COS(=O)(=O)O)c3ccccc32)Nc2ccccc21 [drawing 262] ?
a: False
